B1: ETS1 (parent)
chain: FSEPSFITESYQTLHPISSEELLS

Variants of: B1
assay remarks: protein stability index of a GFP-peptide fusion (GPS, HEK-293T) (PSI 1-6); higher = more stable;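 further: lentivirally expressed fusions sorted by FACS into six bins by GFP to DsRed ratio, PSI derived from sequencing read proportions per bin multiplied by bin number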
details: c terminus: a fixed tail appended
measured property: protein stability index
Give the value as a plain number.

Examples with their reported protein stability index follow.
FSEPSFITESYQTLHPISSEELLM [S24M]
1.97
FSEPSFITESYQTLHPESSEELLS [I17E]
2.39
DSEPSFITESYQTLHPISSEELLS [F1D]
4.47
FSEKSFITESYQTLHPISSEELLS [P4K]
2.45
FSEPFFITESYQTLHPISSEELLS [S5F]
2.26

INPUT: Respond only with protein stability index recorded for FSEPSFITEDYQTLHPISSEELLS [S10D]
OUTPUT: 2.82
